# experiment description: Half life in male Sprague-Dawley rat at 10 mg/kg, po measured at 5 to 1440 mins by LC-MS/MS analysis
# Format: ADME, organism-based
# conditions used: in vivo, time 5-1440 min
quantity kind: half-life (h)

# smi, observed result
measured = [
    ("O=C1Nc2c(cccc2-c2ccc(NC3CCOCC3)cc2)/C1=C/c1ccnc2ccccc12", 1.76),
]

* * *

# measurement target: Dipeptidyl peptidase 1 (Homo sapiens)
# Sequence (P53634 25-134 limits assumed): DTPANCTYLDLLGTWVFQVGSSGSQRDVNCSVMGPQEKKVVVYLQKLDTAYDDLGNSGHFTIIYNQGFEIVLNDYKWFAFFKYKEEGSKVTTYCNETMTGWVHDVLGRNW
# Sequence (P53634 231-394 limits assumed): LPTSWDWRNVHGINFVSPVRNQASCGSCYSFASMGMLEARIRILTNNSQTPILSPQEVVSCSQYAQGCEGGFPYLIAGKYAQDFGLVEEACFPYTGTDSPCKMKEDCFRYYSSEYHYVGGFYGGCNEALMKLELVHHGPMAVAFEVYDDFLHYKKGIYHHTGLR
# Sequence (P53634 395-463 limits assumed): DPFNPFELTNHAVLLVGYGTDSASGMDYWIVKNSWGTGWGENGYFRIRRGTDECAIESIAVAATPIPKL
# experiment description: Inhibition of human recombinant Cathepsin C using Gly-Phe-AFC as substrate preincubated for 3 hrs followed by substrate addition and measured after 1 hr by fluorescence based multifunctional microplate reader analysis
pIC50: −log10 of the molar value.

# smi, result operator, pIC50
rows = [
    ("CCc1ccc(-c2cccc3c2NC(=O)/C3=C\\c2ccnc3ccccc23)cc1", "<", 6.00),
    ("O=C1Nc2c(cccc2-c2ccc(CN3CCNCC3)cc2)/C1=C/c1ccnc2ccccc12", "=", 6.89),
    ("COc1cccc(NC(=O)c2cccc(-c3ccc(CN4CCOCC4)cc3)c2)c1", "=", 6.31),
    ("CC(=O)c1cccc(NC(=O)c2cccc(-c3ccc(CN4CCOCC4)cc3)c2)c1", "=", 6.53),
    ("O=C(Nc1cccc(Cl)c1)c1cccc(-c2ccc(CN3CCOCC3)cc2)c1", "=", 6.42),
]

* * *

# experiment description: Apparent permeability in human Caco-2 cells incubated for 90 min by LC-MS/MS analysis
# Format: ADME, cell-based
quantity kind: Papp at 1.5 h (nm/s)

# smi, quantity kind, observed result
measured = [
    ("O=C1Nc2c(cccc2-c2ccc(NC3CCOCC3)cc2)/C1=C/c1ccnc2ccccc12", "Papp at 1.5 h", 32),
]

* * *

Here, each record is paired with measured pIC50 data.
# measurement target: Dipeptidyl peptidase 1 (Homo sapiens)
# experiment description: Inhibition of human recombinant Cathepsin C using Gly-Phe-AFC as substrate preincubated for 3 hrs followed by substrate addition and measured after 1 hr by fluorescence based multifunctional microplate reader analysis
pIC50: −log10 of the molar value.
quantity kind: pIC50

# smi, result operator, observed result
data = [
    ("CCc1ccccc1NC(=O)c1cccc(-c2ccc(CN3CCOCC3)cc2)c1", "<", 6.00),
    ("O=C1Nc2c(cccc2-c2ccc(Cl)cc2)/C1=C/c1ccnc2ccccc12", "<", 6.00),
    ("O=C1Nc2c(cccc2-c2ccc(NC3CCOCC3)cc2)/C1=C/c1ccnc2ccccc12", "=", 7.07),
    ("O=C(Nc1ccc2ccccc2c1)c1cccc(-c2ccc(CN3CCOCC3)cc2)c1", "=", 6.65),
    ("NC(=O)c1cccc(NC(=O)c2cccc(-c3ccc(CN4CCOCC4)cc3)c2)c1", "=", 6.44),
    ("O=C(Nc1ccc(Cl)cc1)c1cccc(-c2ccc(CN3CCOCC3)cc2)c1", "=", 6.24),
    ("O=C(Nc1nccc2ccccc12)c1cccc(-c2ccc(CN3CCOCC3)cc2)c1", "=", 6.58),
    ("CN(C)Cc1ccc(-c2cccc3c2NC(=O)/C3=C\\c2ccnc3ccccc23)cc1", "=", 6.18),
    ("O=C(Nc1ccnc2ccccc12)c1cccc(-c2ccc(CN3CCOCC3)cc2)n1", "=", 6.56),
    ("O=C(Nc1ccnc2ccccc12)c1cccc(-c2ccc(CN3CCOCC3)cc2)c1", "=", 6.62),
]
